testTarget: S100A9 binding to TLR4/MD2 (Homo sapiens)
Sequence (P06702 whole entry, one chain of several): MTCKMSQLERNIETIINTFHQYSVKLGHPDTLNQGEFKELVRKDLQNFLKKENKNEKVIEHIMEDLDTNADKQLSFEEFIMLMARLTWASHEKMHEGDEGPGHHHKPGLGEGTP
assay: Surface plasmon resonance (Biacore 3000): inhibition of S100A9 binding to immobilized TLR4
reportedConditions: 50 nM recombinant human S100A9 over immobilized TLR4; response at late dissociation phase
assayEndpoint: IC50 (µM)
Answers are plain numbers, in µM.

Ask: Reported IC50, compound COc1ncc(S(=O)(=O)Nc2cncc(Cl)c2O)cc1Br [ABR-238901] : ____
Result: 2.1

----------
testTarget: S100A9 binding to RAGE (Homo sapiens, UniProt P06702)
Sequence (P06702 whole entry): as the sequence (P06702 whole entry, one chain of several) above
assay: Surface plasmon resonance (Biacore 3000): inhibition of S100A9 binding to immobilized RAGE
reportedConditions: 50 nM recombinant human S100A9 over immobilized RAGE; response at late dissociation phase
Text: (a) The molecular structure of ABR-238901. (b-c) Surface plasmon resonance measurement of S100A9 binding to immobilized RAGE (b) and TLR4 (c) in the presence of increasing ABR-238901 concentrations. The magnitude of the response for each ABR-238901 concentration (BABR-238901), measured at the late dissociation phase (t 350s), was expressed as percentage of the response in the absence of competitor (BO), and plotted against the concentration of ABR-238901. […]
assayEndpoint: pIC50
Give bare numbers, as −log10 of the molar value.

Ask: Give the measured pIC50 of COc1ncc(S(=O)(=O)Nc2cncc(Cl)c2O)cc1Br .
Result: 5.57
